- Assay Target: Adeno-associated virus serotype 8 (AAV8) (AAV8)
- Test Method Notes: SPR, AAV amine-coupled to CM5 chip, nanobody 1-50 nM as analyte
Measured Quantity: Kd (nM)

1) A4-L1 (A4-017 with a C-terminal IgA hinge followed by a 6xHis tag) (VHH) VHH: VQLQESGGGLVQPGGSLRLSCAASGSIFSINLMGWYRQAPGKQRELVATITRGGNTNYAGSVKGRFTISRDNAKNTVYLQMNSLRPEDTAVYYCHVDEVRQSSWTTSNLWGQGTQVTVSS: 220
2) A4-T1 (A4-017 with a C-terminal 6xHis tag) (VHH) VHH: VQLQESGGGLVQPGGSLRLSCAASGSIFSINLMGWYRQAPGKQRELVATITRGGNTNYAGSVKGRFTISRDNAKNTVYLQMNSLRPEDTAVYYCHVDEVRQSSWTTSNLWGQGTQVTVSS: 202
3) A4-M1 (A4-017 with an N-terminal amino acid sequence MetAlaGln) (VHH) VHH: QVQLQESGGGLVQPGGSLRLSCAASGSIFSINLMGWYRQAPGKQRELVATITRGGNTNYAGSVKGRFTISRDNAKNTVYLQMNSLRPEDTAVYYCHVDEVRQSSWTTSNLWGQGTQVTVSS: 196
4) A4-T2 (A4-017 with a C-terminal GGGGS linker followed by a 6xHis tag) (VHH) VHH: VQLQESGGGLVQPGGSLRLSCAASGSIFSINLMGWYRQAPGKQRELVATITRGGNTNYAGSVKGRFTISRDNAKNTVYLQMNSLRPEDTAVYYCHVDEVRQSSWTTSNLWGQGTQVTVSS: 102
5) A4-M2 (A4-017 with an N-terminal methionine) (VHH) VHH: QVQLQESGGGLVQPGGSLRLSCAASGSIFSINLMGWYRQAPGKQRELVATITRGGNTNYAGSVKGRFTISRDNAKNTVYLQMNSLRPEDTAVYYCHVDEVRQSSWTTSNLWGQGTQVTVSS: 171
